Target: mGlyT-1b (Mus musculus)
Experiment: Glycine uptake inhibition assay (mGlyT-1b)
Conditions: [3H]-glycine uptake, Flp-in-CHO cells stably transfected with mGlyT1b cDNA, 20 min preincubation at 22° C.
pIC50: −log10 of the molar value. Structures can show the parent of a compound that is named as a salt.
experimental readout: pIC50

Sample records with pIC50:
INSERT INTO assay_data (molecule, test_value) VALUES
  ('COc1cc(C(F)(F)F)cc(SC)c1C(=O)N[C@@]1(c2ccccc2)CC[C@H](C)N(C)C1 (single isomer, unassigned)', 7.90),
  ('COc1cc(C(F)(F)F)cc(SC)c1C(=O)N[C@@]1(c2ccccc2)CCCN(C)C1 (stereo in doubt) [Example 38, hydrochloride]', 8.00),
  ('COc1cc(C(F)(F)F)cc(SC)c1C(=O)NC1(c2ccccc2)CCCN(C)C1C (racemic)', 7.69);

I. COc1cc(C(F)(F)F)cc(SC)c1C(=O)NC1(c2ccc(F)cc2Cl)CCCN(C)C1 (racemic)
II. CN1CCCC(NC(=O)c2ccc(C(F)(F)F)cc2C2CCC2)(c2ccccc2)C1 (racemic) [Example 66, hydrochloride]
III. COc1cc(C(F)(F)F)cc(SC)c1C(=O)NC1(c2ccccc2)CCCN(C(C)C)C1 (racemic) [Example 55, hydrochloride]
Please list these molecules in decreasing order of pIC50. List the labels in the requested order.
III, I, II

A. COc1cc(C(F)(F)F)cc(SC)c1C(=O)NC1(c2cc(F)ccc2F)CCCN(C)C1 (racemic) [Example 69]
B. C[C@@H]1CN(C)C[C@](NC(=O)c2ccc(C(F)(F)F)cc2C2CC2)(c2ccccc2)C1 (racemic) [Example 82, hydrochloride]
Select the item whose pIC50 value is smaller, choosing between A and B . Respond using the label that marks the chosen record.
A

----------
Molecular target: UniProtKB P28571
Assay: Glycine uptake inhibition assay (mGlyT-1b)
Conditions: [3H]-glycine uptake, Flp-in-CHO cells stably transfected with mGlyT1b cDNA, 20 min preincubation at 22° C.
experimental readout: IC50 (nM)

INSERT INTO assay_data (compound, experimental_system, experimental_readout, unit_abbrev, test_value) VALUES
  ('COc1cc(C(F)(F)F)cc(SC)c1C(=O)N[C@]1(c2ccccc2)CC[C@H](C)N(C)C1 (single isomer, unassigned)', 'UniProtKB P28571', 'IC50', 'nM', 32.4);

I. COc1cc(C(F)(F)F)cc(SC)c1C(=O)N[C@]1(c2ccccc2)C[C@@H](OC)CN(C)C1 (stereo in doubt)
II. COc1cc(C(F)(F)F)cc(SC)c1C(=O)NC1(c2cccc(F)c2)CCCN(C)C1 (racemic)
Which value of IC50 is numerically greater: that of I or that of II ? Respond using the label that marks the chosen record.
I

----------
Biological target: mGlyT-1b (Mus musculus)
Assay: Glycine uptake inhibition assay (mGlyT-1b)
Details: [3H]-glycine uptake, Flp-in-CHO cells stably transfected with mGlyT1b cDNA, 20 min preincubation at 22° C.
pIC50: −log10 of the molar value. Where a name gives a salt, the structure may show the parent alone.
experimental readout: pIC50

P. COc1cccc(C2(NC(=O)c3c(OC)cc(C(F)(F)F)cc3SC)CCCN(C)C2)c1 (racemic)
Q. COc1cc(C(F)(F)F)cc(SC)c1C(=O)NC1(c2ccccc2)CC(F)CN(C)C1 (racemic)
Which value of pIC50 is numerically greater: that of P or that of Q ? Respond using the label that marks the chosen record.
P

a. COc1cc(C(F)(F)F)cc(SC)c1C(=O)NC1(c2ccncc2)CCCN(C)C1 (racemic)
b. COc1cc(C(F)(F)F)cc(SC)c1C(=O)N[C@@]1(c2ccccc2)C[C@H](O)CN(C)C1 (racemic) [Example 107, hydrochloride]
c. CN1CCCC(NC(=O)c2c(F)cc(C(F)(F)F)cc2C(F)(F)F)(c2ccccc2)C1 (racemic)
d. CCc1cc(C(F)(F)F)ccc1C(=O)N[C@@]1(c2ccccc2)C[C@H](C)CN(C)C1 (racemic)
Please list these molecules in decreasing order of pIC50. List the labels in the requested order.
d, b, a, c
(d: 7.90, b: 7.51, a: 7.25, c: 6.97)

----------
Target: mGlyT-1b (Mus musculus, UniProt P28571)
Sequence (P28571 1-651 isoform P28571-2): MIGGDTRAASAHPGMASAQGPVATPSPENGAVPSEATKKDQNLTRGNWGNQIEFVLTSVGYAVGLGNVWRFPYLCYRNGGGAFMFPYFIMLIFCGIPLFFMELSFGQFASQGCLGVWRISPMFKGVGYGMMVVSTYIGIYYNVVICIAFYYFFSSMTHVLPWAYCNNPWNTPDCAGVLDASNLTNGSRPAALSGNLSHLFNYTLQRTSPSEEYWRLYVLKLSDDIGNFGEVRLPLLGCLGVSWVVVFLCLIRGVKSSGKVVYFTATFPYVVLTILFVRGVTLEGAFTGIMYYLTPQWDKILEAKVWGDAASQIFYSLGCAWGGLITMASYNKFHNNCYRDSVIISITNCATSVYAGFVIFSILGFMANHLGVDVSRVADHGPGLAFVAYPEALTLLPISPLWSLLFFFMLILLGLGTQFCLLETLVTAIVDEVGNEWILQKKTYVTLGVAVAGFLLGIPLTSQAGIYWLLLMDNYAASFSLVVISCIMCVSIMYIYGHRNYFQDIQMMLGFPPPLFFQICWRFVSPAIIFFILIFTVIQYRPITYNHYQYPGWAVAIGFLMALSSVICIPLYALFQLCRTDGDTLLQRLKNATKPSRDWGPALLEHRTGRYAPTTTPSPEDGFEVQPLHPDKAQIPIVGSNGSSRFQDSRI
Assay: Glycine uptake inhibition assay (mGlyT-1b)
Conditions: [3H]-glycine uptake, Flp-in-CHO cells stably transfected with mGlyT1b cDNA, 20 min preincubation at 22° C.
pIC50: −log10 of the molar value.
experimental readout: pIC50

INSERT INTO measurements (compound, test_value) VALUES
  ('CCc1cc(C(F)(F)F)ccc1C(=O)N[C@@]1(c2ccccc2)C[C@H](OC)CN(C)C1 (racemic) [Example 77]', 7.06),
  ('COc1cc(C(F)(F)F)cc(SC)c1C(=O)NC1(c2ccc(F)cc2F)CCCN(C)C1 (racemic) [Example 67]', 6.89),
  ('COc1cc(C(F)(F)F)cc(C(F)(F)F)c1C(=O)NC1(c2ccccc2)CCCN(C)C1 (racemic) [Example 16]', 6.86),
  ('COc1cc(C(F)(F)F)cc(SC)c1C(=O)NC1(C2CCCCC2)CCCN(C)C1 (racemic) [Example 58]', 6.81),
  ('CCc1cc(C(F)(F)F)cc(C(F)(F)F)c1C(=O)NC1(c2ccccc2)CCCN(C)C1 (racemic) [Example 25]', 6.90);

----------
Target: mGlyT-1b (Mus musculus, UniProt P28571)
Test: Glycine uptake inhibition assay (mGlyT-1b)
Conditions: [3H]-glycine uptake, Flp-in-CHO cells stably transfected with mGlyT1b cDNA, 20 min preincubation at 22° C.
Where a name gives a salt, the structure may show the parent alone.
experimental readout: IC50 (nM)

Sample records with IC50:
INSERT INTO measurements (compound, experimental_system, experimental_readout, unit_abbrev, test_value) VALUES
  ('COc1cc(C(F)(F)F)cc(SC)c1C(=O)NC1(c2cccc(C(F)(F)F)c2)CCCN(C)C1 (racemic) [Example 89]', 'mGlyT-1b (Mus musculus, UniProt P28571)', 'IC50', 'nM', 107),
  ('CCc1c(C(=O)NC2(c3ccccc3)CCCN(C)C2)ccc(C(F)(F)F)c1C (racemic) [Example 103, formic acid]', 'mGlyT-1b (Mus musculus, UniProt P28571)', 'IC50', 'nM', 77.3);

I. CN1CCC[C@](NC(=O)c2ccc(C(F)(F)F)cc2C2CC2)(c2ccccc2)C1 (stereo in doubt) [Example 56, hydrochloride]
II. CCc1cc(C(F)(F)F)ccc1C(=O)NC1(c2ccccc2)CCCN(C)C1 (racemic) [Example 4]
Which value of IC50 is numerically greater: that of I or that of II ? Respond using the label that marks the chosen record.
I

----------
Biological target: mGlyT-1b (Mus musculus, UniProt P28571)
Assay: Glycine uptake inhibition assay (mGlyT-1b)
Details: [3H]-glycine uptake, Flp-in-CHO cells stably transfected with mGlyT1b cDNA, 20 min preincubation at 22° C.
Counter-ions that a name gives are not always drawn.
experimental readout: IC50 (nM)

a. COc1cc(C(F)(F)F)cc(Br)c1C(=O)NC1(c2ccccc2)CCCN(C)C1 (racemic) [Example 7]
b. COc1cc(C(F)(F)F)cc(SC)c1C(=O)NC1(c2ccc(F)c(F)c2)CCCN(C)C1 (racemic) [Example 95]
c. CCc1cc(C(F)(F)F)ccc1C(=O)NC1(c2cccnc2)CCCN(C)C1 (racemic) [Example 74, hydrochloride]
Arrange the 3 entries by IC50 so the values rise. List the labels in the requested order.
b, a, c
